Hello, the source for this data is patent US20210261677A1, in case you need it.

study.system: T1, recombinant human PD-L1-His protein (Origincell Therapeutics Co., Ltd.) (human, UniProt Q9NZQ7 19-238, limits assumed)
T1 construct: not shown: His tag
T1 sequence (Q9NZQ7 19-238 limits assumed): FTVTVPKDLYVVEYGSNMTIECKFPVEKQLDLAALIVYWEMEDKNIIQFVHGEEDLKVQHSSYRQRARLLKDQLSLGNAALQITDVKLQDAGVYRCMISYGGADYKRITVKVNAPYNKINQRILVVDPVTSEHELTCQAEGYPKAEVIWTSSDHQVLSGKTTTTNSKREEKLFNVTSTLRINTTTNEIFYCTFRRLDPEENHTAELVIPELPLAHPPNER
assay.notes: BLI (Octet RED384), antibody on AHC sensor, PD-L1-His in solution
measure: koff (s⁻¹)
// units = s⁻¹; emit number, no label

Reported koff ( PD-L1 antibody YN-038 (antibody, human IgG1, lambda, V domains shown, full-length IgG1,lambda) VH: QVQLVQSGAEVKKPGSSVKVSCKASRGPFSTYAISWVRQAPGQGLEWMGRIIPILGIANYAQKFQGRVTITADKSTSTAYMELSSLRSEDTAVYYCARTMGEYSYGNYDYWGQGTLVTVSS VL: QSALTQPASVSGSPGQSITISCTGTRSDVGGYNEVSWYQQHPGKAPKLMIYENSIRPSGVSHRFSGSKSGNTASLTISGLQAEDEADYYCQSYDSSLSGTVFGGGTKLTVLG ) = 0.000156

Attention now turns to another entry.
Reported koff ( PD-L1 antibody YN-035 (antibody, human IgG1, lambda, V domains shown, full-length IgG1,lambda) VH: QVQLVQSGAEVKKPGSSVKVSCKASRGPFSTYAISWVRQAPGQGLEWMGRIIPILGIANYAQKFQGRVTITADKSTSTAYMELSSLRSEDTAVYYCARTMEGYGFGNFDYWGQGTLVTVSS VL: QSALTQPASVSGSPGQSITISCTGTVSEVGGYNEVSWYQQHPGKAPKLMIYGNSNRPSGVSNRFSGSKSGNTASLTISGLQAEDEADYYCQSYDSSLSGTVFGGGTKLTVLG ) = 0.000193
